Data origin, for the record: paper PMC6696373

experiment: CCK-8 cytotoxicity assay; format: cell-based, human; settings: human, Caco-2, 10 mM peptide in DMEM, 2 h incubation then 4 h with CCK-8, 37 °C, absorbance, three replications, read-out: Survival rate of Caco-2 cells
Where no end group is shown, it is not given here.
observation_type: viability at 2 h, 10000 µM (%)

>>> test_value("WGAPSL [WGAPSL, Trp-Gly-Ala-Pro-Ser-Leu]")
27
